assay: clinical; details: both, human, in vivo
OUTCOME MEASURE: concentration at 0.5 h (nM)

Nc1nc2ncc(CNc3ccc(C(=O)N[C@@H](CCC(=O)O)C(=O)O)cc3)nc2c(=O)[nH]1 = 2.5
